Taken from paper PMC9246766.

target: OCT3 (Homo sapiens, UniProt O75751); experiment: High throughput screen: inhibition of OCT3-mediated ASP+ uptake in HEK-293 cells stably expressing OCT3; assay type: cell-based
Sequence (O75751 whole entry): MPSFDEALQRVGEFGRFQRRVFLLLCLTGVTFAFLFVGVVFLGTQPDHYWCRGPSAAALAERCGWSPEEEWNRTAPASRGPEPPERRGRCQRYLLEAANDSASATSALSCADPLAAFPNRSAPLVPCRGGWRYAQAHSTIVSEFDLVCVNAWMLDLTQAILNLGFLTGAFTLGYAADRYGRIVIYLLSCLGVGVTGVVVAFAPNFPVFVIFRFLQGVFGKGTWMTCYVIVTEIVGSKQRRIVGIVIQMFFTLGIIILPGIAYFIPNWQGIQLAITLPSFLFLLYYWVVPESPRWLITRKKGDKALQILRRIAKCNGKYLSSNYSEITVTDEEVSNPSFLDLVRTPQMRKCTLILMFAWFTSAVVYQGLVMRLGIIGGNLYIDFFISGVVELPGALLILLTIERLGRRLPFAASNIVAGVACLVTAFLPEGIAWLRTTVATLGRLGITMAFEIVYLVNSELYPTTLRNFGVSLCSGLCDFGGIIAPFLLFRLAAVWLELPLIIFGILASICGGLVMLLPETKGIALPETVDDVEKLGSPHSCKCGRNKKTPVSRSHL

# Molecule, Value operator, IC50, µM
data = [
    ("NC(N)=Nc1nc(CSCCC(N)=NS(N)(=O)=O)cs1 [famotidine]", "=", 9.9),
    ("Cc1onc(-c2ccccc2)c1-c1ccc(S(N)(=O)=O)cc1 [valdecoxib]", "=", 17.3),
    ("CC[C@H]1CN2CCc3cc(OC)c(OC)cc3[C@@H]2C[C@@H]1C[C@H]1NCCc2cc(OC)c(OC)cc21 [emetine]", "<", 5),
    ("Cc1oncc1C(=O)Nc1ccc(C(F)(F)F)cc1 [leflunomide]", "=", 19.6),
    ("O=c1n(CCCN2CCN(c3cccc(Cl)c3)CC2)nc2ccccn12 [trazodone]", "<", 5),
]

###

target: UniProt:O75751; assay: Predicted DDI potential: ratio of plasma CMAX (total or unbound) to predicted OCT3 IC50; conditions: unbound plasma CMAX over predicted OCT3 IC50

# Entry smiles, Unbound CMAX/IC50
records = [
    ("NC(N)=Nc1nc(CSCCC(N)=NS(N)(=O)=O)cs1", 28.0),
    ("C[C@@H](O)[C@H]1C(=O)N2C(C(=O)O)=C(S[C@@H]3CN[C@H](C(=O)N(C)C)C3)[C@H](C)[C@H]12", 23.3),
    ("CC1(C)S[C@@H]2[C@H](NC(=O)[C@H](NC(=O)N3CCNC3=O)c3ccccc3)C(=O)N2[C@H]1C(=O)O", 1.23),
    ("O=c1n(CCCN2CCN(c3cccc(Cl)c3)CC2)nc2ccccn12", 0.15),
    ("O=C(O)c1ccccc1Nc1cccc(C(F)(F)F)c1", 0.19),
]

###

Attribute: IC50
target: OCT3 (Homo sapiens, UniProt O75751); assay: High throughput screen: inhibition of OCT3-mediated ASP+ uptake in HEK-293 cells stably expressing OCT3; format: cell-based

# Compound, IC50
records = [
    ("CC1(C)S[C@@H]2[C@H](NC(=O)[C@H](NC(=O)N3CCNC3=O)c3ccccc3)C(=O)N2[C@H]1C(=O)O", "9.9 µM"),
    ("O=C(O)c1ccccc1Nc1cccc(C(F)(F)F)c1", "13 µM"),
    ("CCC1=C(C)CN(C(=O)NCCc2ccc(S(=O)(=O)NC(=O)N[C@H]3CC[C@H](C)CC3)cc2)C1=O [glimepiride]", "< 5 µM"),
    ("CCCNCC(O)COc1ccccc1C(=O)CCc1ccccc1 (stereo not shown)", "7 µM"),
    ("Cc1c(OCC(F)(F)F)ccnc1C[S+]([O-])c1nc2ccccc2[nH]1 (stereo not shown)", "< 5 µM"),
    ("C[C@@H](O)[C@H]1C(=O)N2C(C(=O)O)=C(S[C@@H]3CN[C@H](C(=O)N(C)C)C3)[C@H](C)[C@H]12", "10.8 µM"),
    ("C[C@H]1[C@H](NC(=O)/C(=N\\OC(C)(C)C(=O)O)c2csc(N)n2)C(=O)N1S(=O)(=O)O", "< 5 µM"),
]

###

molecular target: OCT3 (Homo sapiens, UniProt O75751); test: High throughput screen: inhibition of OCT3-mediated ASP+ uptake in HEK-293 cells stably expressing OCT3; type: cell-based
Reported metric: IC50

# Molecule, System, Readout value
records = [
    ("CC(=O)N1CCN(c2ccc(OCC3COC(Cn4ccnc4)(c4ccc(Cl)cc4Cl)O3)cc2)CC1 (centres unmarked)", "OCT3 (Homo sapiens, UniProt O75751)", "< 5 µM"),
    ("COCCCOc1ccnc(C[S+]([O-])c2nc3ccccc3[nH]2)c1C (centres unmarked)", "OCT3 (Homo sapiens, UniProt O75751)", "< 5 µM"),
    ("O=C1CCc2cc(OCCCCc3nnnn3C3CCCCC3)ccc2N1", "OCT3 (Homo sapiens, UniProt O75751)", "< 5 µM"),
    ("C[C@]12C=CC(=O)C=C1CC[C@@H]1[C@@H]2[C@@H](O)C[C@@]2(C)[C@H]1CC[C@]2(O)C(=O)CO", "OCT3 (Homo sapiens, UniProt O75751)", "9.6 µM"),
    ("C=C[C@H]1C[N@@]2CC[C@H]1C[C@H]2[C@H](O)c1ccnc2ccc(OC)cc12", "OCT3 (Homo sapiens, UniProt O75751)", "< 5 µM"),
    ("C=C1C[C@@H]2[C@H](CC[C@]3(C)C(=O)CC[C@@H]23)[C@@]2(C)C=CC(=O)C=C12", "OCT3 (Homo sapiens, UniProt O75751)", "< 5 µM"),
    ("COc1ccc2[nH]c([S+]([O-])Cc3ncc(C)c(OC)c3C)nc2c1 (centres unmarked)", "OCT3 (Homo sapiens, UniProt O75751)", "11.2 µM"),
    ("CC(=O)S[C@@H]1CC2=CC(=O)CC[C@]2(C)[C@H]2CC[C@@]3(C)[C@@H](CC[C@@]34CCC(=O)O4)[C@H]12", "OCT3 (Homo sapiens, UniProt O75751)", "< 5 µM"),
]
